METHOD: Stability assay: residual activity after incubation with 1 mM inhibitor, measured by pNA assay
Format: physicochemical
Parameters: key: fraction of activity at 0 h incubation (0.80 = 80%)
PARTICULARS: incubation time 116.0 hours; 1 mM Cu2+; 25° C., pH 7, 0.1% K-sorbate; relative to 0 hours
Record form. Attribute: Residual Enzyme Activity. Fill in for each entry.
Answer using only a numeral; do not append any unit.

Task: Would you mind telling me what Residual Enzyme Activity value was observed for Protease 10: known protease derived from Nocardiopsis sp. NRRL 18262, amino acids 1-188 of SEQ ID NO: 2 (protein) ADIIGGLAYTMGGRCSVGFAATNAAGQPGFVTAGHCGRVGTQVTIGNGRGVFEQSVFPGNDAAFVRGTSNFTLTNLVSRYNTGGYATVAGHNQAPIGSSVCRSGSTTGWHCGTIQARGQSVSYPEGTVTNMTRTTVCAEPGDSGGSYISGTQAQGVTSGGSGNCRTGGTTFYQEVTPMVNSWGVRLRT ?
Result: 0.837

Task: Would you mind telling me what Residual Enzyme Activity value was observed for Brachysporiella protease: protease from Brachysporiella gayana CGMCC 0865, amino acids 1-186 of SEQ ID NO: 14 (protein, listed as Brachysporiella gayana) MELTSLIAALAVILPIAYGVPMDATTNLSPKVLAAMKRDLGLDAREATARVTFERRAGDVIEELRSSLGDSFAGAWVTDGKVINIGVTDQALVSKVKEAGAEPMVMKNSLGKLQEAKKKLDQIIKEKPKTLSTSGKPGIATYYVDIETNKLIITALSTSITQAEDLAKEVGLSESEFEVRKTEKMP ?
Result: 1.029

Task: Would you mind telling me what Residual Enzyme Activity value was observed for Protease 08: protease from Nocardiopsis alba DSM 15647, amino acids 1-188 of SEQ ID NO: 10 (protein, listed as Nocardiopsis alba) ATGPLPQSPTPDEAEATTMVEALQRDLGLSPSQADELLEAQAESFEIDEAATAAAADSYGGSIFDTDSLTLTVLVTDASAVEAVEAAGAEAKVVSHGMEGLEEIVADLNAADAQPGVVGWYPDIHSDTVVLEVLEGSGADVDSLLADAGVDTADVKVESTTEQPELYADIIGGLAYTMGGRCSVGFAA ?
Result: 0.767

Task: Would you mind telling me what Residual Enzyme Activity value was observed for Protease 18: protease from Nocardiopsis dassonvillei subsp. dassonvillei DSM 43235, amino acids 1-188 of SEQ ID NO: 12 (protein, Nocardiopsis dassonvillei subspecies dassonvillei) APAPVPQTPVADDSAASMTEALKRDLDLTSAEAEELLSAQEAAIETDAEATEAAGEAYGGSLFDTETLELTVLVTDASAVEAVEATGAQATVVSHGTEGLTEVVEDLNGAEVPESVLGWYPDVESDTVVVEVLEGSDADVAALLADAGVDSSSVRVEEAEEAPQVYADIIGGLAYYMGGRCSVGFAAT ?
Result: 0.982

Task: Would you mind telling me what Residual Enzyme Activity value was observed for Metarhizium protease: known protease derived from Metarhizium anisopliae, amino acids 1-188 of SEQ ID NO: 4 (protein, listed as Metarhizium anisopliae) MELTKFLALLAVILPVAYGAPTQAASLHPQILEAMKRDLGLNAEQATVRVAREIHATDVIEQLRSSVAFAGAWIDADVLYIGITDQALADEVTAAGATPIVMTNSLSKLEKAKEDLDKIFIGRANTLETSSDTSSGIASYFVDVAANKLVIEALADSHGHAEQLAAQVGLTSEFEVRTVETMPTTMAT ?
Result: 0.760
